// data source = ChEMBL document CHEMBL2046310

tested on: SGC-7901; assay: Cytotoxicity against human SGC7901 cells after 72 hrs by MTT assay; assay type: functional, cell-based; conditions: SGC-7901, 72 h
Readout: pIC50
Answers are plain numbers, as −log10 of the molar value.

Which pIC50 is reported for this compound? "O=c1[nH]cc(F)c(=O)[nH]1" 4.84
